compounds and their reported inhibition
tested on: Influenza A virus; assay: Inhibition of Influenza A virus AM2 expressed in xenopus laevis frog oocytes assessed as inhibition of channel current at 100 uM after 2 mins by two-electrode voltage clamp assay relative to control; format: cell-based
# unit: % | format: bare number

Examples from the recorded data:
OC12CC3CC(C1)CC(NCc1ccc(-c4ccccc4)s1)(C3)C2: 0.3
OC12CC3CC(C1)CC(NCc1nc(Br)cs1)(C3)C2: 3.9
OC12CC3CC(C1)CC(NCc1csc(Br)c1)(C3)C2: 1.9
OC12CC3CC(C1)CC(NCc1ccc(-c4ccc(F)cc4F)s1)(C3)C2: 0
COc1ccc(-c2ccc(CNC34CC5CC(CC(O)(C5)C3)C4)s2)cc1OC: 0

Now for another entry.
Exam item: Tell me inhibition reported for OC12CC3CC(C1)CC(NCc1ccc(Br)s1)(C3)C2
Marked response: 11.4
